// provenance: patent US6861434B2

Target: dopamine D2 receptor (Rattus norvegicus, UniProt P61169)
Construct: from tissue; host or cells: rat striatal brain tissue homogenate
Sequence (P61169 whole entry): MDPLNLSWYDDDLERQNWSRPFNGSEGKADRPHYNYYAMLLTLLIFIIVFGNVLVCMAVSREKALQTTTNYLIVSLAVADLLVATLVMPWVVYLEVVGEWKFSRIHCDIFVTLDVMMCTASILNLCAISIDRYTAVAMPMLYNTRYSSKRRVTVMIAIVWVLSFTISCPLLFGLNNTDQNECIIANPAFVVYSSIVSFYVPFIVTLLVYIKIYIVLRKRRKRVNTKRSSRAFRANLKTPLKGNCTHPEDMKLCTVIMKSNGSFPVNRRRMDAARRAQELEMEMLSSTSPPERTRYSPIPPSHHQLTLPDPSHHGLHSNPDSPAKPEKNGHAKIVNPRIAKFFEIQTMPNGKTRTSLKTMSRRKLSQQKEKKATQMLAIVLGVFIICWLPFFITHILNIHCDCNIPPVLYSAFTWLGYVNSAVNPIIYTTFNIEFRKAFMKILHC
Experiment: Dopamine D2 receptor affinity, 3H-quinpirole binding in homogenized rat striatal brain tissue
Reported IC50 is given for each of the following compounds.
PROPERTY NAME: IC50

COMPOUND | PROPERTY NAME | RESULT
O=c1[nH]c2ccc3c(c2[nH]1)OC(CN1CC=C(c2ccccc2)CC1)CO3 (stereo not shown) | IC50 | 1.3 nM
CC(=O)Nc1cccc(OCCCNCC2COc3ccc4[nH]c(=O)[nH]c4c3O2)c1 (stereo not shown) | IC50 | 0.55 nM
O=c1[nH]c2ccc3c(c2[nH]1)OC(CNCc1ccccc1)CO3 (stereo not shown) | IC50 | 0.39 nM
O=C(c1ccc(F)cc1)C1CCN(C[C@H]2COc3ccc4[nH]c(=O)[nH]c4c3O2)CC1 | IC50 | 1.43 nM
